Target: T1, human GIP receptor (human, UniProt P48546 22-466)
T1 sequence (looked up): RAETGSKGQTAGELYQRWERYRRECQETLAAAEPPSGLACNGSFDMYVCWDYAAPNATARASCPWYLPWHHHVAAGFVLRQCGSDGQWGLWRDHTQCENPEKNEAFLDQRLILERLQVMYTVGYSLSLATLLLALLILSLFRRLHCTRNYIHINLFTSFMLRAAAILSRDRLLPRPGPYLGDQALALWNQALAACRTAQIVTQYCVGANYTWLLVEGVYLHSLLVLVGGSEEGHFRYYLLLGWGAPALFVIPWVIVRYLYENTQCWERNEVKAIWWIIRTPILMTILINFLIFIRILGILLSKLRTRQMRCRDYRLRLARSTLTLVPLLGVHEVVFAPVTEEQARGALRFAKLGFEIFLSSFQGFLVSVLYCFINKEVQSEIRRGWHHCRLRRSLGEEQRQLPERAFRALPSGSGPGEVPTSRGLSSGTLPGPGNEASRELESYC
Test: cell-based or functional assay
*1 amine or outer side, *2 acyl side, *3 side chain or, on linkers, in order; H or OH if unused. Where no end group is shown, it is not given here. Side-chain parts run from the residue outwards. [ ]: non-standard residue; d: D form. The star is where a group is joined. Decanoyl(10-(4-HOOC-PhO)) = O=C(O)c1ccc(OCCCCCCCCCC(=O)*)cc1; αMePhe(2-F) = C[C@](N)(Cc1ccccc1F)C(=O)O; γGlu = O=C(O)[C@H](CCC(=O)[*:2])N[*:1]; αMeY = C[C@](N)(Cc1ccc(O)cc1)C(=O)O; αMeL = CC(C)C[C@](C)(N)C(=O)O; Orn = NCCC[C@H](N)C(=O)O; AEEA = NCCOCCOCC(=O)O; Aib = CC(C)(N)C(=O)O
Provide the reported cAMP EC50 (1.0% HSA) of each item.
Respond with the bare value in nM.

## Input Look up cAMP EC50 (1.0% HSA) for this binder: Y[Aib]EGT[αMePhe(2-F)]TSDV[Aib]I[αMeL]LD[Orn]IAQ[Aib]EFIK([AEEA-AEEA-γGlu-Decanoyl(10-(4-HOOC-PhO))])[αMeY]LIK([AEEA-AEEA-γGlu-Decanoyl(10-(4-HOOC-PhO))])GGPSSGAPPPS-NH2 [Example 308]
## Output 10.5

## Input Look up cAMP EC50 (1.0% HSA) for this binder: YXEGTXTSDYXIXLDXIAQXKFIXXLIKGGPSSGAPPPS (Y-Aib-EGT-αMeF(2F)-TSDY-Aib-I-αMeL-LD-Orn-IAQ-Aib-K((2-[2-(2-Amino-ethoxy)-ethoxy]-acetyl)2-(γ-Glu)-(10-(4-carboxyphenoxy)decanoyl))FI-(D-Glu)-αMeY-LIK((2-[2-(2-Amino-ethoxy)-ethoxy]-acetyl)2-(γ-Glu)-(10-(4-carboxyphenoxy)decanoyl))GGPSSGAPPPS-NH2) [Example 240]
## Output 11.7

## Input Look up cAMP EC50 (1.0% HSA) for this binder: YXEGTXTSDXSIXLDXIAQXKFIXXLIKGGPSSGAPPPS (Y-Aib-EGT-αMeF(2F)-TSD-4Pal-SI-αMeL-LD-Orn-IAQ-Aib-K(2-[2-(2-Amino-ethoxy)-ethoxy]-acetyl)2-(γ-Glu)-(11-(4-carboxyphenoxy)undecanoyl)FI-(D-Glu)-αMeY-LIK((2-[2-(2-Amino-ethoxy)-ethoxy]-acetyl)2-(γ-Glu)-(11-(4-carboxyphenoxy)undecanoyl)GGPSSGAPPPS-NH2)) [Example 287]
## Output 3.76

## Input Look up cAMP EC50 (1.0% HSA) for this binder: YXEGTXTSDXXIXLDXIAQXKFIXXLIKGGPSSGAPPPS (Y-Aib-EGT-αMeF(2F)-TSD-4Pal-Aib-I-αMeL-LD-Orn-IAQ-Aib-K((2-[2-(2-Amino-ethoxy)-ethoxy]-acetyl)-(γ-Glu)-CO-(CH2)12-CO2H)FI-(D-Glu)-αMeY-LIK((2-[2-(2-Amino-ethoxy)-ethoxy]-acetyl)-(γ-Glu)-CO-(CH2)12-CO2H)GGPSSGAPPPS-NH2) [Example 340]
## Output 9.91

## Input Look up cAMP EC50 (1.0% HSA) for this binder: YXEGTXTSDXXIXLDXIAQXKFIKXLIEGGPSSGAPPPS (Y-Aib-EGT-αMeF(2F)-TSD-4Pal-Aib-I-αMeL-LD-Orn-IAQ-Aib-K((2-[2-(2-Amino-ethoxy)-ethoxy]-acetyl)2-(γ-Glu)-CO-(CH2)12-CO2H)FIK((2-[2-(2-Amino-ethoxy)-ethoxy]-acetyl)2-(γ-Glu)-CO-(CH2)12-CO2H)-αMeY-LIEGGPSSGAPPPS-NH2) [Example 218]
## Output 3.27
